# System tested: Ephrin type-A receptor 3 (Homo sapiens) (UniProt P29320)
# Sequence (whole entry): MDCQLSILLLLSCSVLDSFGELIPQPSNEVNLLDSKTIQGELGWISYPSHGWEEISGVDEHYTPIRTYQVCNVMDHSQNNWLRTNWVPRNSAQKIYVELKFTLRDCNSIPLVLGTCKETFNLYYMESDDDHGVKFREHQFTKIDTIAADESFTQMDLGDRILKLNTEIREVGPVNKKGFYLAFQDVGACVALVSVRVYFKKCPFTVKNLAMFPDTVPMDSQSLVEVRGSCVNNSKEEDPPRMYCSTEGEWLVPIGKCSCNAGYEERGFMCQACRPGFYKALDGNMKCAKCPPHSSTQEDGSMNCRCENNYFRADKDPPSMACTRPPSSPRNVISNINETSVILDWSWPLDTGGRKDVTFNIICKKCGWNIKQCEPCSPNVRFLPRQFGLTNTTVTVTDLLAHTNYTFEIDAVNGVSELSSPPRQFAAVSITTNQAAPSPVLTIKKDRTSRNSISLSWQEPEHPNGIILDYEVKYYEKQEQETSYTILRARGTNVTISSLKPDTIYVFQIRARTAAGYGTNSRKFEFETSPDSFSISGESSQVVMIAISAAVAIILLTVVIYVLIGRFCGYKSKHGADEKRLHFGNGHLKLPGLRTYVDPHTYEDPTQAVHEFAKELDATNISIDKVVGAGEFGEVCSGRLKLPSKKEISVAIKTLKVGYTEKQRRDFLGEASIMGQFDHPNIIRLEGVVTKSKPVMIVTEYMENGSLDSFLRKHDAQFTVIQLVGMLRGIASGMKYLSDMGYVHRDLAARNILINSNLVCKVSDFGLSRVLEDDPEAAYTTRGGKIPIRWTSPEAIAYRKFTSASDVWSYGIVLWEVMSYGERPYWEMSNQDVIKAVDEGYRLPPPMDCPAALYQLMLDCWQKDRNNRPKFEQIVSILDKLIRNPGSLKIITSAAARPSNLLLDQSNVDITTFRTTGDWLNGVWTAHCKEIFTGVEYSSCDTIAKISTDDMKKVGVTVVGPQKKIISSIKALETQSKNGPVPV
# Condition: at 1 µM
Property measured: residual activity

### Prompt Request body: readout residual activity, system Ephrin type-A receptor 3 (Homo sapiens) (UniProt P29320), query CN(C)c1ccc(/C=C2\C(=O)Nc3ccccc32)cc1 . Return the value.
### Response 99%

### Prompt What do you have for Cc1nc2cc3nc(-c4cccs4)cnc3cc2n1C ?
### Response 127%

### Prompt What do you have for Nc1cccc(-c2cc3c(Oc4cccc(O)c4)ncnc3[nH]2)c1 ?
### Response 4%

### Prompt What do you have for CC(C)n1cnc2/c(=N/c3cccc(Cl)c3)nc(NCCO)[nH]c21 ?
### Response 82%

### Prompt What do you have for Cc1ccc(NC2=CC(=O)c3sc(C)nc3C2=O)cc1 ?
### Response 92%

### Prompt What do you have for CCC(=O)Nc1ccc2ncnc(Nc3cccc(Br)c3)c2c1 ?
### Response 105%

### Prompt What do you have for Cn1cc(/C=C2\C(=O)Nc3ccc(S(N)(=O)=O)cc32)c2ccccc21 ?
### Response 50%

### Prompt What do you have for CC[n+]1c(/C=C/N(C)c2ccccc2)n(-c2ccccc2)c2ccc(-c3nc4ccccc4s3)cc21 ?
### Response 116%

### Prompt What do you have for N#Cc1cnc2cnc(NCc3cccnc3)cc2c1Nc1ccc(F)c(Cl)c1 ?
### Response 96%

### Prompt What do you have for Cn1nc2c3c(cccc31)C(=O)c1ccccc1-2 ?
### Response 88%

### Prompt What do you have for CC(C)n1cnc2c(NCc3ccccc3)nc(NCCCO)nc21 ?
### Response 101%

### Prompt What do you have for O=C1NC(=O)c2cc(Nc3ccc(F)cc3)c(Nc3ccc(F)cc3)cc21 ?
### Response 104%

### Prompt What do you have for C[C@@H](N)[C@H]1CC[C@H](C(=O)Nc2ccncc2)CC1 ?
### Response 103%
